Source of measurements: PubChem BioAssay (NCI)

Give measured growth inhibition for each item. Keep answers brief.
Experiment: NCI Yeast Anticancer Drug Screen. Data for the mlh1 rad18 strain (AID 175)
Details: S. cerevisiae mlh1 rad18 strain growth inhibition; at 50.0 µM; hits give high values
Method: Growth inhibition of yeast strains with defined genetic alterations is measured as a screen for potential anti-cancer activity. Selected strains with alterations in DNA damage repair or cell cycle control were exposed to compounds and growth inhibition was measured relative to vehicle treated controls. The strain used in this assay is mlh1 rad18
Compounds without any hit were thinned out: in the full panel of roughly 79,000, 15% have a hit.
Answers are plain numbers, in %.

Study these solved cases before continuing.
>  <molecule>
CCC(=O)C1(CCCN(C)C)c2ccccc2Sc2ccccc21

>  <scale_unit>
%

>  <growth inhibition>
4.6

$$$$
>  <molecule>
O=[N+]([O-])c1ccc2[nH]ccc2c1

>  <scale_unit>
%

>  <growth inhibition>
7.5

$$$$
>  <molecule>
O=C(OCc1ccc(Cl)cc1Cl)OCc1ccc(Cl)cc1Cl

>  <scale_unit>
%

>  <growth inhibition>
37.4

$$$$
>  <molecule>
Nc1cccc(OCC2CCCN3CCCCC23)c1 (stereo not drawn)

>  <scale_unit>
%

>  <growth inhibition>
-64.8

$$$$
>  <molecule>
CC(C)=CCC(OC(=O)C=C(C)C)c1cc(O)c2c(O)ccc(O)c2c1O.[Mn] (stereo not drawn)

>  <scale_unit>
%

>  <growth inhibition>
87.3

$$$$
>  <molecule>
Cc1cc(C)c(C#[N+][O-])c(C)c1C#[N+][O-]

>  <scale_unit>
%

>  <growth inhibition>
15.4

$$$$
>  <molecule>
CCc1ccccc1NC(=O)COc1ccc(Cl)cc1

>  <scale_unit>
%

>  <growth inhibition>
1.1

$$$$
>  <molecule>
NC(=O)CSc1ccccc1

>  <scale_unit>
%

>  <growth inhibition>
-8.6

$$$$
>  <molecule>
CC(O)C(O)C(O)CO (stereo not drawn)

>  <scale_unit>
%

>  <growth inhibition>
8.95

$$$$
>  <molecule>
COC(=S)OC1CC(n2cnc3c(N)ncnc32)OC1CO[Si](C)(C)C(C)(C)C (stereo not drawn)

>  <scale_unit>
%

>  <growth inhibition>
4.9

$$$$

# return growth inhibition for each item in the list
1. O=C(Cc1ccccc1)N/N=C(\C1=Nc2ccc([N+](=O)[O-])cc2NC1O)C(O)c1ccc([N+](=O)[O-])cc1 (stereo not drawn)
2. O=CC(C(=O)c1ccccc1[N+](=O)[O-])c1ccccc1 (stereo not drawn)
3. Cn1c2ccccc2c2oc(CO)cc(=O)c21

1: 18.2; 2: 13.4; 3: 19.3

# return growth inhibition for each item in the list
1. COC1/C=C/OC2(C)Oc3c(C)c(O)c4c(O)c(c(/C=N/N5CC(C)N(C(=O)c6ccccc6)C(C)C5)c(O)c4c3C2=O)NC(=O)C(C)=C/C=C/C(C)C(O)C(C)C(O)C(C)C(OC(C)=O)C1C (stereo not drawn)
2. Oc1cc(O)c2c(c1)O[C@@H](c1ccc(O)c(O)c1)[C@H](O)C2
3. O=C(c1ccccc1)c1cccs1
4. COc1cc2c3cc1Oc1c(OC)c(OC)cc4c1C(Cc1ccc(O)c(c1)Oc1ccc(cc1)CC3N(C)CC2)CN(C)C4 (stereo not drawn)

1: 5.45; 2: 7.55; 3: -17.9; 4: 25.1

# return growth inhibition for each item in the list
1. CC(C)(C)c1[nH]ncc1CCC(=O)Nc1ccc(Cl)cc1Cl
2. Cc1cc(N(CCC#N)CCC#N)ccc1/C=C1N=C(/C=C\c2ccccc2)N(NC(=O)CC(=O)Nc2ccccc2Cl)C\1=O
3. O=C(O)c1ccc(F)cc1C(=O)O
4. N#Cc1ccc([N+](=O)[O-])n1CCO
5. O=C1CSC(=S)N1Nc1ccccc1

[4.05, 5.05, 1.45, 19.3, -10.1]

What does the record list as growth inhibition for [Cu+2].[Cu+2].[O-]c1ccccc1C=Nc1ccccc1[O-].[O-]c1ccccc1C=Nc1ccccc1[O-] ? 1.55
